Value source: patent US5344933A

Test: Absorption characteristics of dyes in ethyl acetate
Assay type: physicochemical
assay.metric: half value width (in words)

Below, each entry is followed by its recorded half value width (in words) result.
Can you share its half value width (in words)? I mean this molecule: CCCCCCCCCCCCCCCCS(=O)(=O)Nc1ccc(Cl)c(NC(=O)NC2=NC(=Nc3ccc(N(CC)CCNS(C)(=O)=O)cc3)C(C(N)=O)=C2C(N)=O)c1
large half value width

Can you share its half value width (in words)? I mean this molecule: CCC(Oc1ccc(C(C)(C)CC)cc1C(C)(C)CC)C(=O)NC1=NC(=Nc2ccc(N(CC)CCNS(C)(=O)=O)cc2C)C(C(N)=O)=C1C(N)=O (centres unmarked)
large half value width

Can you share its half value width (in words)? I mean this molecule: CCCCCCCCCCCCC(SC1=NC(=Nc2ccc(N(CC)CCNS(C)(=O)=O)cc2C)C(C#N)=C1C(=O)OCC)C(=O)OCC (centres unmarked)
sufficiently small

Can you share its half value width (in words)? I mean this molecule: CCCCCCCCCCCCSC1=NC(=Nc2ccc(N(CC)CCNS(C)(=O)=O)cc2C)C(C#N)=C1C(=O)OCC
sufficiently small

Can you share its half value width (in words)? I mean this molecule: CCN(CCNS(C)(=O)=O)c1ccc(N=C2N=C(NC(C)=O)C(C#N)=C2C#N)c(C)c1
sufficiently small

Can you share its half value width (in words)? I mean this molecule: CCN(CCNS(C)(=O)=O)c1ccc(N=C2N=C(NC(=O)Nc3ccccc3)C(C#N)=C2C#N)c(C)c1
sufficiently small

Can you share its half value width (in words)? I mean this molecule: CCC(Oc1ccc(C(C)(C)CC)cc1C(C)(C)CC)C(=O)NC1=C(C#N)C(c2ccccc2)=NC1=Nc1ccc(N(CC)CCNS(C)(=O)=O)cc1C (centres unmarked)
large half value width

Continuing:
Can you share its half value width (in words)? I mean this molecule: CCOC(=O)C1=C(c2ccccc2)C(=Nc2ccc(N(CC)CCNS(C)(=O)=O)cc2C)N=C1Cl
large half value width

====

Assay: Absorption characteristics of dyes in ethyl acetate
Type: physicochemical
Please go through the items and note down their Half value width.
Hi! Could you send only the number? It should be in nm, unit omitted.

Can you share its Half value width? I mean this compound: CCN(CCNS(C)(=O)=O)c1ccc(N=C2N=C(N)C(C#N)=C2C#N)c(C)c1
79

Can you share its Half value width? I mean this compound: CCCCCCCCCCCCSC1=NC(=Nc2ccc(N(CC)CCNS(C)(=O)=O)cc2C)C(C#N)=C1C(=O)OCC
69

Can you share its Half value width? I mean this compound: CCOC(=O)C1=C(c2ccccc2)C(=Nc2ccc(N(CC)CCNS(C)(=O)=O)cc2C)N=C1Cl
82

Can you share its Half value width? I mean this compound: CCCCCCCCCCCCC(SC1=NC(=Nc2ccc(N(CC)CCNS(C)(=O)=O)cc2C)C(C#N)=C1C(=O)OCC)C(=O)OCC (stereo not drawn)
65

Can you share its Half value width? I mean this compound: CCN(CCNS(C)(=O)=O)c1ccc(N=C2N=C(NC(=O)Nc3ccccc3)C(C#N)=C2C#N)c(C)c1
79

Can you share its Half value width? I mean this compound: CCN(CCNS(C)(=O)=O)c1ccc(N=C2N=C(NC(C)=O)C(C#N)=C2C#N)c(C)c1
64

Can you share its Half value width? I mean this compound: CCCCCCCCCCCCCCCCS(=O)(=O)Nc1ccc(Cl)c(NC(=O)NC2=NC(=Nc3ccc(N(CC)CCNS(C)(=O)=O)cc3)C(C(N)=O)=C2C(N)=O)c1
120

Can you share its Half value width? I mean this compound: CCC(Oc1ccc(C(C)(C)CC)cc1C(C)(C)CC)C(=O)NC1=NC(=Nc2ccc(N(CC)CCNS(C)(=O)=O)cc2C)C(C(N)=O)=C1C(N)=O (stereo not drawn)
98

Can you share its Half value width? I mean this compound: CCC(Oc1ccc(C(C)(C)CC)cc1C(C)(C)CC)C(=O)NC1=C(C#N)C(c2ccccc2)=NC1=Nc1ccc(N(CC)CCNS(C)(=O)=O)cc1C (stereo not drawn)
78

====

Please go through the items and note down their Heat fastness (% remaining).
Experiment: Heat fastness of dye images, 60° C. dry, 7 days (Example 2)
Type: physicochemical
Conditions: Table 1, initial density 1.0, at λmax
Hi! Could you send only the number? It should be in %, unit omitted.

Can you share its Heat fastness (% remaining)? I mean this molecule: CCN(CC)c1ccc(N=C2C(C#N)=C(c3ccccc3)c3nc(=O)ccn32)c(NC(C)=O)c1
95

Can you share its Heat fastness (% remaining)? I mean this molecule: CCN(CC)c1ccc(N=C2C(c3ccccc3)=C(C#N)c3nc(=O)c4ccccc4n32)c(NC(C)=O)c1
85

Can you share its Heat fastness (% remaining)? I mean this molecule: CCOC(=O)c1c(C)n2c(nc1=O)C(C#N)=C(c1ccccc1)C2=Nc1ccc(N(CC)CCOc2ccc(OC)cc2)cc1
86

Can you share its Heat fastness (% remaining)? I mean this molecule: CCOC(=O)c1c(C)n2c(nc1=O)C(C#N)=C(c1ccccc1)C2=Nc1ccc(N(CC)CC)cc1NC(=O)OC
85

Can you share its Heat fastness (% remaining)? I mean this molecule: CCOC(=O)c1cn2c(nc1=O)C(C#N)=C(c1ccccc1)C2=Nc1ccc(N(CC)CC)cc1NC(=O)OC
98

Can you share its Heat fastness (% remaining)? I mean this molecule: CCOC(=O)c1c(C)n2c(nc1=O)C(C#N)=C(c1ccccc1)C2=Nc1ccc(N(CC)CC)cc1
85

Can you share its Heat fastness (% remaining)? I mean this molecule: CCOC(=O)c1cn2c(nc1=O)C(C#N)=C(c1ccccc1)C2=Nc1ccc(N(CC)CC)cc1
99

Can you share its Heat fastness (% remaining)? I mean this molecule: CCOC(=O)C1=C(C#N)C(=Nc2ccc(N(CC)CC)cc2)n2c1nc1ccccc1c2=O
86

Can you share its Heat fastness (% remaining)? I mean this molecule: CCC1=C(Cl)C(=O)C(NC(=O)c2ccco2)=CC1=Nc1ccc(N(CC)CC)cc1 [Dye a, reference compound]
88

Can you share its Heat fastness (% remaining)? I mean this molecule: CCOC(=O)c1cn2c(nc1=O)C(C#N)=C(c1ccccc1)C2=Nc1ccc(N(CC)CCOc2ccc(OC)cc2)cc1
100

Can you share its Heat fastness (% remaining)? I mean this molecule: CCOC(=O)c1cn2c(nc1=O)C(C#N)=C(C#N)C2=Nc1ccc(N(CC)CC)cc1NC(=O)N(C)C
98

====

Test: Heat fastness of dye images, 60° C. dry, 7 days, status A reflection density (Example 5)
Format: physicochemical
Settings: Table 4, status A reflection density 1.0
Cut-off 90% on Heat fastness (% remaining): below means 1.0, at or above means 0.0.

Just wondering, is Heat fastness (% remaining) of CCN(CC)c1ccc(N=C2N=C(c3ccccc3)C(C#N)=C2C(C)(C)C)c(NC(=O)N2CCOCC2)c1 below 90%?
0.0

Just wondering, is Heat fastness (% remaining) of CCN(CCOc1ccc(C(=O)c2ccccc2)c(O)c1)c1ccc(N=C2N=C(c3ccccc3)C(C#N)=C2c2cccs2)cc1 below 90%?
0.0

Just wondering, is Heat fastness (% remaining) of CCN(CC)c1ccc(N=C2C=C(NC(=O)c3ccco3)C(=O)C(Cl)=C2C)cc1 [Dye b, reference compound] below 90%?
1.0

====

Please go through the items and note down their Light fastness (% remaining).
Experiment: Light fastness of dye images, 17,000 lux fluorescent lamp, 7 days
Assay type: physicochemical
Details: Table 1; 17,000 lux, 7 days; initial density 1.0, at λmax; polyvinyl butyral
Remember to quote the unit after the number.

Can you share its Light fastness (% remaining)? I mean this molecule: CCOC(=O)c1cn2c(nc1=O)C(C#N)=C(c1ccccc1)C2=Nc1ccc(N(CC)CC)cc1NC(=O)OC
94%

Can you share its Light fastness (% remaining)? I mean this molecule: CCOC(=O)c1c(C)n2c(nc1=O)C(C#N)=C(c1ccccc1)C2=Nc1ccc(N(CC)CC)cc1
90%

Can you share its Light fastness (% remaining)? I mean this molecule: CCOC(=O)C1=C(C#N)C(=Nc2ccc(N(CC)CC)cc2)n2c1nc1ccccc1c2=O
90%

Can you share its Light fastness (% remaining)? I mean this molecule: CCC1=C(Cl)C(=O)C(NC(=O)c2ccco2)=CC1=Nc1ccc(N(CC)CC)cc1 [Dye a, reference compound]
87%

====

Experiment: Absorption characteristics of dyes in ethyl acetate
Format: physicochemical
Settings: Example 1
assay.metric: absorption maxima wavelength (λmax) (nm)
Hi! Could you send only the number? It should be in nm, unit omitted.

Can you share its absorption maxima wavelength (λmax)? I mean this compound: CCOC(=O)c1c(C)n2c(nc1=O)C(C#N)=C(c1ccccc1)C2=Nc1ccc(N(CC)CCNS(C)(=O)=O)cc1C
697

Can you share its absorption maxima wavelength (λmax)? I mean this compound: CCOC(=O)c1cn2c(nc1=O)C(C#N)=C(c1ccccc1)C2=Nc1ccc(N(CC)CC)cc1NC(=O)OC
698

Can you share its absorption maxima wavelength (λmax)? I mean this compound: CCCCCCCCCCCCC(SC1=NC(=Nc2ccc(N(CC)CCNS(C)(=O)=O)cc2C)C(C#N)=C1C(=O)OCC)C(=O)OCC (stereo not shown)
660

Can you share its absorption maxima wavelength (λmax)? I mean this compound: CCOC(=O)c1cn2c(nc1=O)C(C#N)=C(c1ccccc1)C2=Nc1ccc(N(CC)CC)cc1
694

Can you share its absorption maxima wavelength (λmax)? I mean this compound: CCCCCCCCCCCCCCCCCCOc1ccc(-c2cc(=O)n3c(n2)C(C#N)=C(c2ccccc2)C3=Nc2ccc(N(CC)CCNS(C)(=O)=O)cc2C)cc1
658

Can you share its absorption maxima wavelength (λmax)? I mean this compound: CCN(CCNS(C)(=O)=O)c1ccc(N=C2N=C(N)C(C#N)=C2C#N)c(C)c1
641

Can you share its absorption maxima wavelength (λmax)? I mean this compound: CCOC(=O)c1c(C)n2c(nc1=O)C(C#N)=C(c1ccccc1)C2=Nc1ccc(N(CC)CC)cc1
685

Can you share its absorption maxima wavelength (λmax)? I mean this compound: CCCCCCCCCCCCCCCCS(=O)(=O)Nc1ccc(Cl)c(NC(=O)NC2=NC(=Nc3ccc(N(CC)CCNS(C)(=O)=O)cc3)C(C(N)=O)=C2C(N)=O)c1
639

Can you share its absorption maxima wavelength (λmax)? I mean this compound: CCCCCCCCCCCCSC1=NC(=Nc2ccc(N(CC)CCNS(C)(=O)=O)cc2C)C(C#N)=C1C(=O)OCC
655

Can you share its absorption maxima wavelength (λmax)? I mean this compound: CCC(Oc1ccc(C(C)(C)CC)cc1C(C)(C)CC)C(=O)NC1=C(C#N)C(c2ccccc2)=NC1=Nc1ccc(N(CC)CCNS(C)(=O)=O)cc1C (stereo not shown)
601

Can you share its absorption maxima wavelength (λmax)? I mean this compound: CCN(CCNS(C)(=O)=O)c1ccc(N=C2N=C(NC(C)=O)C(C#N)=C2C#N)c(C)c1
658

Can you share its absorption maxima wavelength (λmax)? I mean this compound: CCOC(=O)C1=C(c2ccccc2)C(=Nc2ccc(N(CC)CCNS(C)(=O)=O)cc2C)N=C1Cl
582

Can you share its absorption maxima wavelength (λmax)? I mean this compound: CCN(CCNS(C)(=O)=O)c1ccc(N=C2N=C(NC(=O)Nc3ccccc3)C(C#N)=C2C#N)c(C)c1
677
